Sourced from PubChem BioAssay AID1671448

- Target Desc: Ferrochelatase, mitochondrial (Homo sapiens) (UniProt P22830)
- Sequence (P22830 whole entry, looked up): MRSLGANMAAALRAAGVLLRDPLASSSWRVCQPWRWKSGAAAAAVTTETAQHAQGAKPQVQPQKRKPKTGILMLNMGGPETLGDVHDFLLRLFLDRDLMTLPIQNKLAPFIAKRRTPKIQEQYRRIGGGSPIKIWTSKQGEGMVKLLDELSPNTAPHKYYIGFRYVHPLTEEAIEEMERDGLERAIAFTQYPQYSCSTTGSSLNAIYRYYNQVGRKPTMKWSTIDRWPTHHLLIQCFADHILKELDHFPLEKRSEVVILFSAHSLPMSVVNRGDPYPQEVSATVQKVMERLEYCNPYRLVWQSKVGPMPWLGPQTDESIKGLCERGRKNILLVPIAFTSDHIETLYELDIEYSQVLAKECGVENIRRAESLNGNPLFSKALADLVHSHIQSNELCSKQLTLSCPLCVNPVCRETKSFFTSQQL
- Test Summary: FECH heme synthesis enzyme blockers – biochemical, purified FECH, Ni-mesoporphyrin absorbance, primary screen (AID 1671448)
- Condition Context: Ni-mesoporphyrin absorbance 550 nm, screened at 10 µM (by protocol)
About 660 (3.3%) of roughly 20,000 compounds were called active.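 How the source made its calls: active means enzyme reaction rate more than 3 SD below the solvent-only control wells on the same plate; inactive means the rest.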 Only a selection was taken, and actives are over-represented in it overall.
Write down one outcome, taken from class 1 (active), class 0 (inactive)

Worked cases, answers included:
Molecule	Target Desc	Classification
CC(C)c1nccn1Cc1nc2ccccc2c(=O)[nH]1	Ferrochelatase, mitochondrial (Homo sapiens) (UniProt P22830)	class 0
COc1ccc(CNC(=O)CN2c3ccc(C(C)C)cc3-c3ccccc3S2(=O)=O)cc1	Ferrochelatase, mitochondrial (Homo sapiens) (UniProt P22830)	class 1
CCC(C)N(Cc1ccsc1)C(=O)c1cn2c(n1)CNCC2 (stereo unspecified)	Ferrochelatase, mitochondrial (Homo sapiens) (UniProt P22830)	class 0
Cc1cc(C)n(CCC(=O)N(Cc2ccccc2C)CC2CCCO2)c(=O)n1 (stereo unspecified)	Ferrochelatase, mitochondrial (Homo sapiens) (UniProt P22830)	class 0
CC(C)CNc1nc(Nc2ccc(Cl)cc2)c2cnn(-c3ccccc3)c2n1	Ferrochelatase, mitochondrial (Homo sapiens) (UniProt P22830)	class 0

Turning now to a further record.
Q: Hi team, can someone confirm the assay call for CCCOc1cccc(-c2c(Nc3ccccc3)oc3c2c(=O)n(C)c(=O)n3C)c1 ?
A: class 0
